# system: IL-10 (Homo sapiens, UniProt P22301 P22301:19-178)
# Sequence (P22301 19-178, one chain of several): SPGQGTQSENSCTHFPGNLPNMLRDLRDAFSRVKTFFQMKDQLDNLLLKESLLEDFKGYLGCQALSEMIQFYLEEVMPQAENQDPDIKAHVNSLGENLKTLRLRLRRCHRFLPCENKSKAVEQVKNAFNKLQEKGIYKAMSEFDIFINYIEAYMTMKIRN
# assay name: filter; TEM buffer, 37 C
# condition description: tags: Bachem or R & D Systems; chain copies: 2 inferred
measure: pKd
// scale note: pKd = -log10(conc_M); give the bare number

Entry IL-10 ligand 43 (ssRNA, 2'-F all C and U) RNA: GGGAGACAAGAAUAAACGCUCAAACAUCGUAUAACUCUAAGGGCCUGGAUAUACGAUGAAUUCGACAGGAGGCUCACAACAGGC — recorded pKd = 6.67
